# Target System: PDE9 (Homo sapiens, UniProt O76083)
# Sequence (O76083 whole entry): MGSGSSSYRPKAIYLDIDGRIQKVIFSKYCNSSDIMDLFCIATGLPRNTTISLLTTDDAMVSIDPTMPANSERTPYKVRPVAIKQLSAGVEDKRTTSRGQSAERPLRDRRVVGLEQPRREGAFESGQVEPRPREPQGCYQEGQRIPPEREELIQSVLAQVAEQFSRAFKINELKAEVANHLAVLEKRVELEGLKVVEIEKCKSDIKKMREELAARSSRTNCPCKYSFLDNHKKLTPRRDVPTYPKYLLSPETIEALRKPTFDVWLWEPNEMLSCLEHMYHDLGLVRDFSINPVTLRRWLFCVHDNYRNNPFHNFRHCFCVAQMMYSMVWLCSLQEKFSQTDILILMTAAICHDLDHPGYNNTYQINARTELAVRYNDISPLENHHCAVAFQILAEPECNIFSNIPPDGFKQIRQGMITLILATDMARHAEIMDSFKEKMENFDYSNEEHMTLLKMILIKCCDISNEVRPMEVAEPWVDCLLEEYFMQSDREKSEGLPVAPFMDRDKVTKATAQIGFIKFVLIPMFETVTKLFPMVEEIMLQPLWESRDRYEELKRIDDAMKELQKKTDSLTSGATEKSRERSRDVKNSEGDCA
# Assay Method Text: PDE9 inhibition assay
# Type: biochemical
# Test Settings: SPA assay, 10 nM 3H-cAMP, 1 hour incubation; read-out: IC50
Checkbox rule: IC50 lower than 20 nM = 1 (yes); IC50 not lower than 20 nM = 0 (no).

Solved entries:
1. O=c1[nH]c(CN2CC(c3ccc(C(F)(F)F)cn3)C2)cn2c(-c3ccc(F)cc3)ncc12 [Compound 77]: 1 (yes)
2. CN(C)c1ccc(C2CN(Cc3cn4c(C5CCCC5)ncc4c(=O)[nH]3)C2)cc1 [Compound 48]: 0 (no)
3. O=c1[nH]c(CN2CC(Oc3cnc4ccccc4n3)C2)cn2c(C3CCOCC3)ncc12 [Compound 72]: 0 (no)
4. COC1CN(C(C)c2cn3c(-c4ccccc4)ncc3c(=O)[nH]2)C1 (stereo not shown) [Compound 20]: 1 (yes)
5. COc1ccc(C2CN(C(C)c3cn4c(-c5ccccc5)ncc4c(=O)[nH]3)C2)cc1 (stereo not shown) [Compound 34]: 0 (no)
6. COc1ccc(C2CN(Cc3cn4c(C5CCCC5)ncc4c(=O)[nH]3)C2)cc1 [Compound 41]: 0 (no)

Problem: Please check: IC50 for Cc1ccc(COC2CN(Cc3cn4c(-c5ccc(F)cc5)ncc4c(=O)[nH]3)C2)cc1 [Compound 113] , strictly under 20 nM or not?
Solution: 1 (yes)
